Give measured inhibition for each item. Keep answers brief.
Biological target: Troponin I, cardiac muscle (Homo sapiens) + Troponin T, cardiac muscle (Homo sapiens) + Troponin C, slow skeletal and cardiac muscles (Homo sapiens) (UniProt P19429+P45379+P63316)
Assay: calcium desensitizers of cardiac thin filaments – biochemical, fluorescence readout, confirmation (AID 504635)
Details: reconstituted cardiac thin filaments, calcium sensitivity fluorescence; at 7.15 µM; stronger effect = higher value
The list shows a part of the results.
The reply should be a number in %, with the unit left off.

Req: Any idea what its inhibition is? The compound is Cc1cc(NC(=O)CCC(=O)N(CC(=O)NCC2CCCO2)c2ccccc2)no1 (stereo not drawn)
Resp: -4.68

Req: Form field: reported inhibition of COc1cccc(CNC(=O)C(=O)NCCC2CCCCN2S(=O)(=O)c2ccc(C)cc2)c1 (stereo not drawn)
Resp: -4.1

Req: Could you share which inhibition value was measured for Cc1ccc(S(=O)(=O)N(CC(=O)Nc2cccc([N+](=O)[O-])c2)Cc2ccc(Cl)cc2)cc1 ?
Resp: -1.82

Req: Data request, read-out inhibition, for O=C(O)c1cccc(S(=O)(=O)Nc2ccc(O)cc2Sc2nc3ccccc3s2)c1
Resp: -6.09

Req: Quick one: inhibition of CCCCn1c(=O)c(C(C)=O)c(O)c2ccccc21 ?
Resp: -4.91

Req: Given the entry O=c1ccc2c(-c3ccccc3S(=O)(=O)O)c3ccc(O)c(O)c3oc-2c1O , report its measured inhibition.
Resp: 154

Req: Which inhibition is listed for C/C(=N\NC(=O)C(N)=O)c1ccc2c(c1)OCCO2 ?
Resp: -2.4

Req: # input compound: C=CCNC(=O)COC(=O)c1ccccc1C(=O)N(C)C1CCCCC1 ; wanted: its inhibition
Resp: 0.72
